Reported GI50 values follow for various compounds
- Test system: TC32
- Experimental details: Cytotoxicity, resazurin fluorescence, TC32
- Type: cell-based
- Test context: Homo sapiens, TC-32, 72 h, read-out: GI50 TC32, Table 6, EWS cells
Write down the numeric answer in nM and omit the unit.

Compound	GI50 / nM
COC(C(=NOCCNC(=O)c1[nH]c2ccc(Cl)cc2c1-c1c(C)noc1C)C(O)C(C)O)C1Cc2cc3cc(OC4CC(OC5CC(O)C(O)C(C)O5)C(O)C(C)O4)c(C)c(O)c3c(O)c2C(=O)C1OC1CC(OC2CC(OC3CC(C)(O)C(O)C(C)O3)C(O)C(C)O2)C(O)C(C)O1 (stereo not shown) [YL-C110]	14.3
CO[C@H](C(=NOCCNC(=O)c1cc2cc(F)ccc2[nH]1)[C@@H](O)[C@@H](C)O)[C@@H]1Cc2cc3cc(O[C@H]4C[C@@H](O[C@H]5C[C@@H](O)[C@H](O)[C@@H](C)O5)[C@H](O)[C@@H](C)O4)c(C)c(O)c3c(O)c2C(=O)[C@H]1O[C@H]1C[C@@H](O[C@H]2C[C@@H](O[C@H]3C[C@](C)(O)[C@H](O)[C@@H](C)O3)[C@@H](O)[C@@H](C)O2)[C@H](O)[C@@H](C)O1 [YL-B168]	30.3
COC(C(=NOCCNC(=O)c1cc2cc(Br)ccc2[nH]1)C(O)C(C)O)C1Cc2cc3cc(OC4CC(OC5CC(O)C(O)C(C)O5)C(O)C(C)O4)c(C)c(O)c3c(O)c2C(=O)C1OC1CC(OC2CC(OC3CC(C)(O)C(O)C(C)O3)C(O)C(C)O2)C(O)C(C)O1 (stereo not shown) [YL-B169]	18.4

# ---- query compound ----
The compound CO[C@H](C(=NOCCNC(=O)c1cc2cc(OC(F)(F)F)ccc2[nH]1)[C@@H](O)[C@@H](C)O)[C@@H]1Cc2cc3cc(O[C@H]4C[C@@H](O[C@H]5C[C@@H](O)[C@H](O)[C@@H](C)O5)[C@H](O)[C@@H](C)O4)c(C)c(O)c3c(O)c2C(=O)[C@H]1O[C@H]1C[C@@H](O[C@H]2C[C@@H](O[C@H]3C[C@](C)(O)[C@H](O)[C@@H](C)O3)[C@@H](O)[C@@H](C)O2)[C@H](O)[C@@H](C)O1 [YL-B171] showed GI50 equal to 25.6

====

- Experimental details: log P
- Format: physicochemical
- Test context: Table 2
Endpoint name: logP
The answer should be a number; do not append a unit.

Consider the reported logP for these compounds:
Compound	Endpoint name	Value
CO[C@H](C(=NOCCNC(=O)c1ccc2scnc2c1)[C@@H](O)[C@@H](C)O)[C@@H]1Cc2cc3cc(O[C@H]4C[C@@H](O[C@H]5C[C@@H](O)[C@H](O)[C@@H](C)O5)[C@H](O)[C@@H](C)O4)c(C)c(O)c3c(O)c2C(=O)[C@H]1O[C@H]1C[C@@H](O[C@H]2C[C@@H](O[C@H]3C[C@](C)(O)[C@H](O)[C@@H](C)O3)[C@@H](O)[C@@H](C)O2)[C@H](O)[C@@H](C)O1 [YL-C61]	logP	1.12
CO[C@H](C(=NOCCNC(=O)c1cc2cc(F)ccc2[nH]1)[C@@H](O)[C@@H](C)O)[C@@H]1Cc2cc3cc(O[C@H]4C[C@@H](O[C@H]5C[C@@H](O)[C@H](O)[C@@H](C)O5)[C@H](O)[C@@H](C)O4)c(C)c(O)c3c(O)c2C(=O)[C@H]1O[C@H]1C[C@@H](O[C@H]2C[C@@H](O[C@H]3C[C@](C)(O)[C@H](O)[C@@H](C)O3)[C@@H](O)[C@@H](C)O2)[C@H](O)[C@@H](C)O1 [YL-B168]	logP	1.62

# ---- query compound ----
The compound COC(C(=NOCC(=O)Nc1cccc2cnccc12)C(O)C(C)O)C1Cc2cc3cc(OC4CC(OC5CC(O)C(O)C(C)O5)C(O)C(C)O4)c(C)c(O)c3c(O)c2C(=O)C1OC1CC(OC2CC(OC3CC(C)(O)C(O)C(C)O3)C(O)C(C)O2)C(O)C(C)O1 (stereo not drawn) [YL-B160] showed logP equal to 1.3
